System: Escherichia coli TOP10;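 also: peptides expressed intracellularly from a pBAD plasmid library in pooled LB shake-flask culture, induced with 0.3% L-arabinose, DNA abundance read by NGS, three biological replicates, DESeq2 with apeglm shrinkage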
Protocol Notes: shrunken log2 fold change of peptide-encoding DNA abundance (4.5 h post-induction vs induction); higher = less antimicrobial activity (less host growth inhibition)
Condition Set: time post-induction: 4.5 h; library: site-saturation at positions 5, 18, 19, 20
# label = bin(measured shrunken log2 fold change), where bins are bin 1: < -0.1; bin 2: ≥ -0.1 and < 0.1; bin 3: ≥ 0.1

Bin? RRIRHRPPRLPRPRPRPGCMPRP
bin 2

Bin? RRIRFRPPRLPRPRPRPFGLPRP
bin 1

Bin? RRIRKRPPRLPRPRPRPWVDPRP
bin 3

Bin? RRIRTRPPRLPRPRPRPNNGPRP
bin 1

Bin? RRIRKRPPRLPRPRPRPWHPPRP
bin 3

Bin? RRIRMRPPRLPRPRPRPANKPRP
bin 3

Bin? RRIRERPPRLPRPRPRPFCSPRP
bin 1

Bin? RRIRARPPRLPRPRPRPSYTPRP
bin 3

Bin? RRIRRRPPRLPRPRPRPNPVPRP
bin 3

Bin? RRIRARPPRLPRPRPRPPNMPRP
bin 2

Bin? RRIRLRPPRLPRPRPRPDEHPRP
bin 1

Bin? RRIRYRPPRLPRPRPRPQLTPRP
bin 2

Bin? RRIRVRPPRLPRPRPRPYKNPRP
bin 1

Bin? RRIRNRPPRLPRPRPRPGHPPRP
bin 2

Bin? RRIRERPPRLPRPRPRPMTQPRP
bin 2

Bin? RRIRGRPPRLPRPRPRPIKTPRP
bin 3

Bin? RRIRRRPPRLPRPRPRPLCEPRP
bin 3

Bin? RRIRVRPPRLPRPRPRPDSKPRP
bin 1

Bin? RRIRTRPPRLPRPRPRPWKKPRP
bin 2

Bin? RRIRFRPPRLPRPRPRPLNCPRP
bin 1

Bin? RRIRARPPRLPRPRPRPWYQPRP
bin 1

Bin? RRIRHRPPRLPRPRPRPIHGPRP
bin 2

Bin? RRIRTRPPRLPRPRPRPNQSPRP
bin 1

Bin? RRIRCRPPRLPRPRPRPQTQPRP
bin 3

Bin? RRIRARPPRLPRPRPRPMPIPRP
bin 3

Bin? RRIRRRPPRLPRPRPRPQLFPRP
bin 3

Bin? RRIRPRPPRLPRPRPRPWMQPRP
bin 2

Bin? RRIRFRPPRLPRPRPRPRDCPRP
bin 3

Bin? RRIRNRPPRLPRPRPRPVLEPRP
bin 3

Bin? RRIRGRPPRLPRPRPRPWPSPRP
bin 3

Bin? RRIRKRPPRLPRPRPRPWTMPRP
bin 2

Bin? RRIRVRPPRLPRPRPRPYFDPRP
bin 1

Bin? RRIRERPPRLPRPRPRPMVVPRP
bin 1

Bin? RRIRRRPPRLPRPRPRPAMGPRP
bin 3

Bin? RRIRVRPPRLPRPRPRPPITPRP
bin 1

Bin? RRIRMRPPRLPRPRPRPMNKPRP
bin 2

Bin? RRIRCRPPRLPRPRPRPHPAPRP
bin 3

Bin? RRIRIRPPRLPRPRPRPMIGPRP
bin 1

Bin? RRIRGRPPRLPRPRPRPIAQPRP
bin 3

Bin? RRIRERPPRLPRPRPRPCTQPRP
bin 2

Bin? RRIRNRPPRLPRPRPRPTIPPRP
bin 1

Bin? RRIRLRPPRLPRPRPRPMWQPRP
bin 2

Bin? RRIRGRPPRLPRPRPRPPDWPRP
bin 3

Bin? RRIRRRPPRLPRPRPRPGALPRP
bin 3

Bin? RRIRPRPPRLPRPRPRPAWRPRP
bin 3

Bin? RRIRGRPPRLPRPRPRPDNNPRP
bin 3

Bin? RRIRYRPPRLPRPRPRPIHKPRP
bin 1

Bin? RRIRGRPPRLPRPRPRPVSRPRP
bin 3

Bin? RRIRERPPRLPRPRPRPAEFPRP
bin 2

Bin? RRIRRRPPRLPRPRPRPTHYPRP
bin 3

Bin? RRIRSRPPRLPRPRPRPANQPRP
bin 1

Bin? RRIRYRPPRLPRPRPRPEREPRP
bin 2

Bin? RRIRNRPPRLPRPRPRPHCEPRP
bin 1

Bin? RRIRQRPPRLPRPRPRPFIMPRP
bin 1

Bin? RRIRWRPPRLPRPRPRPSQDPRP
bin 3

Bin? RRIRWRPPRLPRPRPRPPYKPRP
bin 1

Bin? RRIRGRPPRLPRPRPRPWTKPRP
bin 2

Bin? RRIRKRPPRLPRPRPRPCLEPRP
bin 2

Bin? RRIRPRPPRLPRPRPRPLGQPRP
bin 2

Bin? RRIRFRPPRLPRPRPRPGPKPRP
bin 2

Bin? RRIRMRPPRLPRPRPRPWVRPRP
bin 2

Bin? RRIRKRPPRLPRPRPRPWCDPRP
bin 1
